# Tested on: Eotaxin-3 (CCL26) release
# Test description: Human Whole Blood Eotaxin-3 Assay (IL-4 stimulated)
# Assay type: cell-based
# Details: Homo sapiens; geometric mean across assay runs and compound batches; EC50 provided for test compounds with >80% Emax
Parameter: EC50 (nM)

Past entries and their recorded results:
C[C@@H](c1cc2c(-n3cc(F)c4c(c3=O)CCN4)ccnc2n1C)N1CC=C(c2c(F)cc(C(=O)N3CCn4nc(CN5CCC(c6ccc(NC7CCC(=O)NC7=O)cc6F)CC5)cc4C3)cc2F)CC1 (some centres unmarked) = 8.8
CNc1cc(=O)n(-c2ccnc3c2cc([C@H](C)N2CC=C(c4c(C)cc(C(=O)N5CCC(CN6CCN(c7ccc(NC8CCC(=O)NC8=O)cc7F)CC6)CC5)cc4F)CC2)n3C)cc1F (some centres unmarked) = 9.2
CNc1ccn(-c2ccnc3c2cc([C@H](C)N2CC=C(c4c(C)cc(C(=O)N5CCC(CN6CCN(c7ccc(N[C@@H]8CCC(=O)NC8=O)c(OC)c7)CC6)CC5)cc4F)CC2)n3C)c(=O)c1 (single isomer, unassigned) = 9.3
CNc1ccn(-c2ccnc3c2cc([C@H](C)N2CCC(c4c(C)cc(C(=O)N5CCC(CN6CCN(c7ccc(NC8CCC(=O)NC8=O)cc7F)CC6)CC5)cc4F)CC2)n3C)c(=O)c1 (some centres unmarked) = 64.6

[A] CNc1cc(=O)n(-c2ccnc3c2cc(CN2CCC(c4c(F)cc(C(=O)N5CCC(CN6CCN(c7ccc(N[C@@H]8CCC(=O)NC8=O)cc7F)CC6)CC5)cc4F)CC2)n3C)cc1F (single isomer, unassigned)
[B] CNc1ccn(-c2ccnc3c2cc([C@H](C)N2CC=C(c4c(F)cc(C(=O)N5CCC(CN6CCN(c7ccc(NC8CCC(=O)NC8=O)cc7F)CC6)CC5)cc4F)CC2)n3C)c(=O)c1 (some centres unmarked)
[C] CNc1ccn(-c2ccnc3c2cc([C@H](C)N2CC=C(c4c(C)cc(C(=O)N5CCn6nc(CN7CCC(c8ccc(N[C@@H]9CCC(=O)NC9=O)c(OC)c8)CC7)cc6C5)cc4F)CC2)n3C)c(=O)c1 (single isomer, unassigned)
[D] CNc1ccn(-c2ccnc3c2cc([C@H](C)N2CC=C(c4c(C)cc(C(=O)N5CCn6nc(CN7CCC(c8ccc(N[C@H]9CCC(=O)NC9=O)c(OC)c8)CC7)cc6C5)cc4F)CC2)n3C)c(=O)c1 (single isomer, unassigned)
Parameters: sort_field (EC50), sort_dir (desc). Give me the labels in the order the question wants. A, B, C, D
(A: 64.7 nM, B: 9 nM, C: 1.1 nM, D: 0.5 nM)
